Where do these numbers come from? They come from patent US20140045856A1.

- TARGET SYSTEM: PDE10 (Homo sapiens, UniProt Q9Y233)
- Sequence (Q9Y233 whole entry, species assumed): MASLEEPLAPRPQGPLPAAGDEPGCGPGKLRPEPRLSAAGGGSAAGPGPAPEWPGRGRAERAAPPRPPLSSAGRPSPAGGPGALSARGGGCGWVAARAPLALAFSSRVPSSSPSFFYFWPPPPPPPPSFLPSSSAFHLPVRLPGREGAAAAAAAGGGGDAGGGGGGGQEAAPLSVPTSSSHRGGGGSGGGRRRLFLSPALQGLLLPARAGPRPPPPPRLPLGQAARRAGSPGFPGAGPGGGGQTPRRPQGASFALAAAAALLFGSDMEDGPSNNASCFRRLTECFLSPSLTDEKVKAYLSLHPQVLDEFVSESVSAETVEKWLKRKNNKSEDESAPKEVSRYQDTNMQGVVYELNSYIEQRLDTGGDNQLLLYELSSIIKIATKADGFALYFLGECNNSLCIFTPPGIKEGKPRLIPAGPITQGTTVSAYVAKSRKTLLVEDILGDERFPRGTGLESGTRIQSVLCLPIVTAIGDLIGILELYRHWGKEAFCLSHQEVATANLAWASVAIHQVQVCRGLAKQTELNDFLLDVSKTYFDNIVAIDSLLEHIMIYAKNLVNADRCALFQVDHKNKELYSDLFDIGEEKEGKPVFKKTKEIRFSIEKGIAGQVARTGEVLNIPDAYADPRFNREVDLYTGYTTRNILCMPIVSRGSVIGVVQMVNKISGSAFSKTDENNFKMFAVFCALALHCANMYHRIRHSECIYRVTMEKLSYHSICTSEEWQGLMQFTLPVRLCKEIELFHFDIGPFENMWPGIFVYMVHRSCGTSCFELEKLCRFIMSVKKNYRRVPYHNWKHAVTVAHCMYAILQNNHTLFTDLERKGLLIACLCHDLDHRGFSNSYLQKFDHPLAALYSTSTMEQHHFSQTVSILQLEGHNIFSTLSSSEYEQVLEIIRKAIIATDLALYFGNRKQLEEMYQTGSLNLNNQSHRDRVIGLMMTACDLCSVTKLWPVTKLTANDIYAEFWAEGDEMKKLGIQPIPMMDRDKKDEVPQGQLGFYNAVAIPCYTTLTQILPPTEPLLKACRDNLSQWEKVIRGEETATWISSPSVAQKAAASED
pIC50: −log10 of the molar value.
Values of pIC50 greater than or equal to 6 map to TRUE; values below map to FALSE.

# bool: pIC50 of Cc1nc2ccc(C3CC3)nc2n2c(-c3cc(OC4COCCC4O)ccc3Cl)nnc12 (single isomer, unassigned) [Example 109d] >= 6
FALSE

Moving on to Cc1nc2cccnc2n2c(-c3cc(OC4COCC4O)ccc3Cl)nnc12 (single isomer, unassigned) [Example 55a]
FALSE

Moving on to Cc1nc2ccc(C3CC3)nc2n2c(-c3cc(OC4COCCC4O)ccc3F)nnc12 (single isomer, unassigned) [Example 108b]
TRUE

Moving on to Cc1nc2ccc(C3CC3)nc2n2c(-c3cc(C4(O)CCOC4)ccc3Cl)nnc12 (single isomer, unassigned) [Example 97a]
FALSE

Moving on to `Cc1nc2ccc(C3CC3)nc2n2c(-c3cc(O)ccc3F)nnc12`
TRUE

Moving on to `Cc1ccc2nc(C)c3nnc(-c4cc(OC5CCC(F)(F)CC5)ccc4Cl)n3c2n1`
FALSE

Moving on to `COCCCOc1ccc(Cl)c(-c2nnc3c(C)nc4ccc(C)nc4n23)c1`
FALSE

Moving on to Cc1nc2ccc(C(F)(F)F)nc2n2c(-c3cc(C4(O)CCOC4)ccc3F)nnc12 (centres unmarked) [Example 96c]
FALSE

Moving on to Cc1nc2ccc(C3CC3)nc2n2c(-c3cc(OC4CCOCC4O)ccc3F)nnc12 (single isomer, unassigned) [Example 108c]
TRUE

Moving on to `Cc1ccc2nc(C)c3nnc(-c4cc(C5(O)CCC5)ccc4F)n3c2n1`
TRUE

Moving on to Cc1nc2ccc(C(F)(F)F)nc2n2c(-c3cc(OC4COCCC4O)ccc3F)nnc12 (single isomer, unassigned) [Example 110b]
FALSE

Moving on to `Cc1nc2cccnc2n2c(-c3cc(OCC(C)(C)O)ccc3Cl)nnc12`
FALSE

Moving on to Cc1ccc(C2(O)CCOCC2O)cc1-c1nnc2c(C)nc3ccc(C4CC4)nc3n12 (racemic) [Example 104]
FALSE

Moving on to `Cc1nc2cccnc2n2c(-c3cc(O)ccc3Cl)nnc12`
TRUE

Moving on to `Cc1ccc(OCC2(O)CCC2)cc1-c1nnc2c(C)nc3cccnc3n12`
FALSE

Moving on to Cc1ccc(O)cc1-c1nnc2c(C)nc3ccc(C(F)(F)F)nc3n12 [Example 12a]
TRUE

Moving on to `Cc1ccc(C(C)(C)CO)cc1-c1nnc2c(C)nc3ccc(C4CC4)nc3n12`
FALSE

Moving on to Cc1nc2ccc(C3CC3)nc2n2c(-c3cc(C4(O)CCOCC4O)ccc3F)nnc12 (racemic)
FALSE

Moving on to `Cc1nc2ccc(C(C)C)nc2n2c(-c3cc(C4(O)CCC4)ccc3Cl)nnc12`
TRUE

Moving on to Cc1ccc(C2(O)CCOCC2O)cc1-c1nnc2c(C)nc3ccc(C4CC4)nc3n12 (single isomer, unassigned) [Example 104a]
FALSE

Moving on to `Cc1nc2ccc(C(C)C)nc2n2c(-c3cc(C4(O)CCC4)ccc3F)nnc12`
TRUE

Moving on to Cc1nc2ccc(C3CC3)nc2n2c(-c3cc(OC4CCOCC4)ccc3Cl)nnc12 [Example 32a]
FALSE

Moving on to `Cc1nc2cccnc2n2c(-c3cc(O)ccc3F)nnc12`
TRUE
